Items are presented alongside their recorded pIC50.
test system: 171881-019-R-J1-PDC tumor spheroid viability; assay: Anticancer human tumor 171881-019-R-J1-PDC patient-derived invasive breast carcinoma cell line growth inhibition [PI3K]; details: curve of first compound; second compound 0.01 µM; spheroids with HUVEC and MSC
pIC50: −log10 of the molar value.
ATTRIBUTE MEASURED: pIC50

{"columns": ["COMPOUND", "TEST SYSTEM", "RESULT"],
 "data": [
  ["CC1(C)CCC(Nc2ncc(C(F)(F)F)c(-c3c[nH]c4c(P(C)(C)=O)c(C#N)ccc34)n2)CN1 (stereo not drawn) + COc1c(OCCCN2CCOCC2)ccc2c3n(c(=NC(=O)c4cnc(N)nc4)nc12)CCN3", "171881-019-R-J1-PDC tumor spheroid viability", "> 7.50"],
  ["C[C@@H](NC(=O)c1ncnc(N)c1Cl)c1ncc(C(=O)Nc2cc(C(F)(F)F)c(Cl)cn2)s1 + COc1c(OCCCN2CCOCC2)ccc2c3n(c(=NC(=O)c4cnc(N)nc4)nc12)CCN3", "171881-019-R-J1-PDC tumor spheroid viability", 6.63],
  ["Cn1ncc(Cl)c1-c1cc(C(=O)NC(CN)Cc2cccc(F)c2)sc1Cl (stereo not drawn) + COc1c(OCCCN2CCOCC2)ccc2c3n(c(=NC(=O)c4cnc(N)nc4)nc12)CCN3", "171881-019-R-J1-PDC tumor spheroid viability", "> 7.50"]
]}

###

Test system: 171881-019-R-J1-PDC tumor spheroid viability
Assay: Anticancer human tumor 171881-019-R-J1-PDC cell line growth inhibition [PI3K]; active = viability on the fitted dose curve at most 10% of control; inactive = the rest;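 note: spheroids exposed to compound for 7 days before viability read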
Conditions: second compound 1 µM; first compound 0.1 µM; spheroids with HUVEC and MSC
Source text: Combinatorial screen of targeted agents with the PI3K inhibitors inavolisib, alpelisib, duvelisib, and copanlisib in multi-cell type tumor spheroids A high-throughput screen of multi-cell type tumor spheroids was designed to identify active combinations of targeted small molecules and PI3K pathway inhibitors. […] Compounds. […] If the clinical Cmax for an agent had not been determined, the highest concentration tested was 10 microM. […]
Outcome codes: active, inactive

{"columns": ["COMPOUND", "ASSIGNED LABEL"],
 "data": [
  ["Cn1nccc1Nc1nccc(-c2ccn(C(CO)c3ccc(Cl)c(F)c3)c(=O)c2)n1 (stereo unspecified) + CC(Nc1ncnc2nc[nH]c12)c1cc2cccc(Cl)c2c(=O)n1-c1ccccc1", "inactive"],
  ["Cn1ncc(Cl)c1-c1cc(C(=O)NC(CN)Cc2cccc(F)c2)sc1Cl (stereo unspecified) + COc1c(OCCCN2CCOCC2)ccc2c3n(c(=NC(=O)c4cnc(N)nc4)nc12)CCN3", "active"],
  ["C[C@@H](NC(=O)c1ncnc(N)c1Cl)c1ncc(C(=O)Nc2cc(C(F)(F)F)c(Cl)cn2)s1 + CC(Nc1ccc2c(c1)OCCn1cc(N3C(=O)OCC3C(F)F)nc1-2)C(N)=O", "inactive"],
  ["Cn1ncc(Cl)c1-c1cc(C(=O)NC(CN)Cc2cccc(F)c2)sc1Cl (stereo unspecified) + Cc1nc(NC(=O)N2CCCC2C(N)=O)sc1-c1ccnc(C(C)(C)C(F)(F)F)c1", "inactive"],
  ["CC(Cn1ccc(-c2ccc(C#N)c(Cl)c2)n1)NC(=O)c1cc(C(C)O)[nH]n1 (stereo unspecified) + Cc1nc(NC(=O)N2CCCC2C(N)=O)sc1-c1ccnc(C(C)(C)C(F)(F)F)c1", "inactive"],
  ["CNC(=O)c1ccc(N2C(=S)N(c3ccc(C#N)c(C(F)(F)F)c3)C(=O)C2(C)C)cc1F + COc1c(OCCCN2CCOCC2)ccc2c3n(c(=NC(=O)c4cnc(N)nc4)nc12)CCN3", "active"],
  ["C=CC(=O)N1CCN(c2nc(=O)n(-c3c(C)ccnc3C(C)C)c3nc(-c4c(O)cccc4F)c(F)cc23)C(C)C1 (stereo unspecified) + Cc1nc(NC(=O)N2CCCC2C(N)=O)sc1-c1ccnc(C(C)(C)C(F)(F)F)c1", "inactive"],
  ["CNC(=O)c1ccc(N2C(=S)N(c3ccc(C#N)c(C(F)(F)F)c3)C(=O)C2(C)C)cc1F + Cc1nc(NC(=O)N2CCCC2C(N)=O)sc1-c1ccnc(C(C)(C)C(F)(F)F)c1", "inactive"],
  ["CCCS(=O)(=O)Nc1ccc(F)c(C(=O)c2c[nH]c3ncc(-c4ccc(Cl)cc4)cc23)c1F + COc1c(OCCCN2CCOCC2)ccc2c3n(c(=NC(=O)c4cnc(N)nc4)nc12)CCN3", "active"],
  ["CC(C)n1nc(-c2ccc3oc(N)nc3c2)c2c(N)ncnc21 + CC(Nc1ccc2c(c1)OCCn1cc(N3C(=O)OCC3C(F)F)nc1-2)C(N)=O", "active"],
  ["C[C@@H](NC(=O)c1ncnc(N)c1Cl)c1ncc(C(=O)Nc2cc(C(F)(F)F)c(Cl)cn2)s1 + CC(Nc1ncnc2nc[nH]c12)c1cc2cccc(Cl)c2c(=O)n1-c1ccccc1", "inactive"]
]}

###

System: 171881-019-R-J1-PDC tumor spheroid viability
Test: Anticancer human tumor 171881-019-R-J1-PDC cell line growth inhibition [PI3K];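 note: spheroids exposed to compound for 7 days before viability read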
Conditions: curve of first compound; second compound 3.16 µM; spheroids with HUVEC and MSC
Source text: Combinatorial screen of targeted agents with the PI3K inhibitors inavolisib, alpelisib, duvelisib, and copanlisib in multi-cell type tumor spheroids A high-throughput screen of multi-cell type tumor spheroids was designed to identify active combinations of targeted small molecules and PI3K pathway inhibitors. […] Compounds. […] If the clinical Cmax for an agent had not been determined, the highest concentration tested was 10 microM. […]
pIC50: −log10 of the molar value.
Param threshold (7) applies to pIC50; output Condition met when value >= threshold, Condition not met when value < threshold.

{"columns": ["COMPOUND", "TEST SYSTEM", "ASSIGNED LABEL"],
 "data": [
  ["CC(=O)c1c(C)c2cnc(Nc3ccc(N4CCNCC4)cn3)nc2n(C2CCCC2)c1=O + Cc1nc(NC(=O)N2CCCC2C(N)=O)sc1-c1ccnc(C(C)(C)C(F)(F)F)c1", "171881-019-R-J1-PDC tumor spheroid viability", "Condition met"],
  ["CCN1CCN(Cc2ccc(Nc3ncc(F)c(-c4cc(F)c5nc(C)n(C(C)C)c5c4)n3)nc2)CC1 + Cc1nc(NC(=O)N2CCCC2C(N)=O)sc1-c1ccnc(C(C)(C)C(F)(F)F)c1", "171881-019-R-J1-PDC tumor spheroid viability", "Condition met"],
  ["C=CC(=O)N1CCN(c2nc(=O)n(-c3c(C)ccnc3C(C)C)c3nc(-c4c(O)cccc4F)c(F)cc23)C(C)C1 (stereo unspecified) + Cc1nc(NC(=O)N2CCCC2C(N)=O)sc1-c1ccnc(C(C)(C)C(F)(F)F)c1", "171881-019-R-J1-PDC tumor spheroid viability", "Condition met"],
  ["CC(C)n1nc(-c2ccc3oc(N)nc3c2)c2c(N)ncnc21 + CC(Nc1ncnc2nc[nH]c12)c1cc2cccc(Cl)c2c(=O)n1-c1ccccc1", "171881-019-R-J1-PDC tumor spheroid viability", "Condition met"],
  ["CCCS(=O)(=O)Nc1ccc(F)c(C(=O)c2c[nH]c3ncc(-c4ccc(Cl)cc4)cc23)c1F + CC(Nc1ncnc2nc[nH]c12)c1cc2cccc(Cl)c2c(=O)n1-c1ccccc1", "171881-019-R-J1-PDC tumor spheroid viability", "Condition not met"],
  ["CCCS(=O)(=O)Nc1ccc(F)c(C(=O)c2c[nH]c3ncc(-c4ccc(Cl)cc4)cc23)c1F + Cc1nc(NC(=O)N2CCCC2C(N)=O)sc1-c1ccnc(C(C)(C)C(F)(F)F)c1", "171881-019-R-J1-PDC tumor spheroid viability", "Condition met"],
  ["Cn1nccc1Nc1nccc(-c2ccn(C(CO)c3ccc(Cl)c(F)c3)c(=O)c2)n1 (stereo unspecified) + CC(Nc1ncnc2nc[nH]c12)c1cc2cccc(Cl)c2c(=O)n1-c1ccccc1", "171881-019-R-J1-PDC tumor spheroid viability", "Condition not met"],
  ["CC1(C)CCC(CN2CCN(c3ccc(C(=O)NS(=O)(=O)c4ccc(NCC5CCOCC5)c([N+](=O)[O-])c4)c(Oc4cnc5[nH]ccc5c4)c3)CC2)=C(c2ccc(Cl)cc2)C1 + Cc1nc(NC(=O)N2CCCC2C(N)=O)sc1-c1ccnc(C(C)(C)C(F)(F)F)c1", "171881-019-R-J1-PDC tumor spheroid viability", "Condition met"],
  ["C[C@@H](NC(=O)c1ncnc(N)c1Cl)c1ncc(C(=O)Nc2cc(C(F)(F)F)c(Cl)cn2)s1 + Cc1nc(NC(=O)N2CCCC2C(N)=O)sc1-c1ccnc(C(C)(C)C(F)(F)F)c1", "171881-019-R-J1-PDC tumor spheroid viability", "Condition met"]
]}

###

tested on: 171881-019-R-J1-PDC tumor spheroid viability; experiment: Anticancer human tumor 171881-019-R-J1-PDC cell line growth inhibition [PI3K]; conditions: second compound 1 µM; first compound 1 µM; stronger effect = lower value; spheroids with HUVEC and MSC;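 note: spheroids exposed to compound for 7 days before viability read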;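 for viability, T/C: 100% = DMSO vehicle-treated spheroids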
Items are presented alongside their recorded viability, T/C.

{"columns": ["MOLECULE", "READING UNIT", "viability, T/C"],
 "data": [
  ["CC1(C)CCC(CN2CCN(c3ccc(C(=O)NS(=O)(=O)c4ccc(NCC5CCOCC5)c([N+](=O)[O-])c4)c(Oc4cnc5[nH]ccc5c4)c3)CC2)=C(c2ccc(Cl)cc2)C1 + CC(Nc1ncnc2nc[nH]c12)c1cc2cccc(Cl)c2c(=O)n1-c1ccccc1", "%", 84.8],
  ["CCCS(=O)(=O)Nc1ccc(F)c(C(=O)c2c[nH]c3ncc(-c4ccc(Cl)cc4)cc23)c1F + COc1c(OCCCN2CCOCC2)ccc2c3n(c(=NC(=O)c4cnc(N)nc4)nc12)CCN3", "%", 1.16],
  ["C=CC(=O)N1CCN(c2nc(=O)n(-c3c(C)ccnc3C(C)C)c3nc(-c4c(O)cccc4F)c(F)cc23)C(C)C1 (stereo not given) + CC(Nc1ncnc2nc[nH]c12)c1cc2cccc(Cl)c2c(=O)n1-c1ccccc1", "%", 112],
  ["CCCS(=O)(=O)Nc1ccc(F)c(C(=O)c2c[nH]c3ncc(-c4ccc(Cl)cc4)cc23)c1F + CC(Nc1ncnc2nc[nH]c12)c1cc2cccc(Cl)c2c(=O)n1-c1ccccc1", "%", 105],
  ["CNC(=O)c1ccc(N2C(=S)N(c3ccc(C#N)c(C(F)(F)F)c3)C(=O)C2(C)C)cc1F + Cc1nc(NC(=O)N2CCCC2C(N)=O)sc1-c1ccnc(C(C)(C)C(F)(F)F)c1", "%", 30.9],
  ["C#Cc1c(F)ccc2cc(O)cc(-c3ncc4c(N5CC6CCC(C5)N6)nc(OCC56CCCN5CC(F)C6)nc4c3F)c12 (stereo not given) + CC(Nc1ccc2c(c1)OCCn1cc(N3C(=O)OCC3C(F)F)nc1-2)C(N)=O", "%", 7.17],
  ["CC(Cn1ccc(-c2ccc(C#N)c(Cl)c2)n1)NC(=O)c1cc(C(C)O)[nH]n1 (stereo not given) + COc1c(OCCCN2CCOCC2)ccc2c3n(c(=NC(=O)c4cnc(N)nc4)nc12)CCN3", "%", 1.22],
  ["Cn1nccc1Nc1nccc(-c2ccn(C(CO)c3ccc(Cl)c(F)c3)c(=O)c2)n1 (stereo not given) + COc1c(OCCCN2CCOCC2)ccc2c3n(c(=NC(=O)c4cnc(N)nc4)nc12)CCN3", "%", 0.86],
  ["CNC(=O)c1ccc(N2C(=S)N(c3ccc(C#N)c(C(F)(F)F)c3)C(=O)C2(C)C)cc1F + CC(Nc1ncnc2nc[nH]c12)c1cc2cccc(Cl)c2c(=O)n1-c1ccccc1", "%", 86.9],
  ["C[C@@H](NC(=O)c1ncnc(N)c1Cl)c1ncc(C(=O)Nc2cc(C(F)(F)F)c(Cl)cn2)s1 + Cc1nc(NC(=O)N2CCCC2C(N)=O)sc1-c1ccnc(C(C)(C)C(F)(F)F)c1", "%", 24.5],
  ["CC(C)NCC(C(=O)N1CCN(c2ncnc3c2C(C)CC3O)CC1)c1ccc(Cl)cc1 (stereo not given) + COc1c(OCCCN2CCOCC2)ccc2c3n(c(=NC(=O)c4cnc(N)nc4)nc12)CCN3", "%", 1.35],
  ["CC1(C)CCC(CN2CCN(c3ccc(C(=O)NS(=O)(=O)c4ccc(NCC5CCOCC5)c([N+](=O)[O-])c4)c(Oc4cnc5[nH]ccc5c4)c3)CC2)=C(c2ccc(Cl)cc2)C1 + CC(Nc1ccc2c(c1)OCCn1cc(N3C(=O)OCC3C(F)F)nc1-2)C(N)=O", "%", 23.4],
  ["Cn1nccc1Nc1nccc(-c2ccn(C(CO)c3ccc(Cl)c(F)c3)c(=O)c2)n1 (stereo not given) + CC(Nc1ccc2c(c1)OCCn1cc(N3C(=O)OCC3C(F)F)nc1-2)C(N)=O", "%", 4.72],
  ["CCN1CCN(Cc2ccc(Nc3ncc(F)c(-c4cc(F)c5nc(C)n(C(C)C)c5c4)n3)nc2)CC1 + Cc1nc(NC(=O)N2CCCC2C(N)=O)sc1-c1ccnc(C(C)(C)C(F)(F)F)c1", "%", 61.5],
  ["CC1(C)CCC(Nc2ncc(C(F)(F)F)c(-c3c[nH]c4c(P(C)(C)=O)c(C#N)ccc34)n2)CN1 (stereo not given) + Cc1nc(NC(=O)N2CCCC2C(N)=O)sc1-c1ccnc(C(C)(C)C(F)(F)F)c1", "%", 32.7],
  ["Cn1nccc1Nc1nccc(-c2ccn(C(CO)c3ccc(Cl)c(F)c3)c(=O)c2)n1 (stereo not given) + CC(Nc1ncnc2nc[nH]c12)c1cc2cccc(Cl)c2c(=O)n1-c1ccccc1", "%", 31.3],
  ["C#Cc1c(F)ccc2cc(O)cc(-c3ncc4c(N5CC6CCC(C5)N6)nc(OCC56CCCN5CC(F)C6)nc4c3F)c12 (stereo not given) + COc1c(OCCCN2CCOCC2)ccc2c3n(c(=NC(=O)c4cnc(N)nc4)nc12)CCN3", "%", 0.83],
  ["CCN1CCN(Cc2ccc(Nc3ncc(F)c(-c4cc(F)c5nc(C)n(C(C)C)c5c4)n3)nc2)CC1 + CC(Nc1ncnc2nc[nH]c12)c1cc2cccc(Cl)c2c(=O)n1-c1ccccc1", "%", 114],
  ["CC(C)NCC(C(=O)N1CCN(c2ncnc3c2C(C)CC3O)CC1)c1ccc(Cl)cc1 (stereo not given) + CC(Nc1ncnc2nc[nH]c12)c1cc2cccc(Cl)c2c(=O)n1-c1ccccc1", "%", 28],
  ["C[C@@H](NC(=O)c1ncnc(N)c1Cl)c1ncc(C(=O)Nc2cc(C(F)(F)F)c(Cl)cn2)s1 + COc1c(OCCCN2CCOCC2)ccc2c3n(c(=NC(=O)c4cnc(N)nc4)nc12)CCN3", "%", 1.3]
]}
